What CC50 was measured for each of the following?
Tested on: HeLa
EXPERIMENTAL_PROTOCOL: Cytotoxicity against VSV infected human HeLa cells by trypan blue exclusion method
Type: cell-based
CONDITION_LABEL: hela

Qu. Note CC50 for the molecule shown: COc1cc(/C=C/C(=O)CC(=O)/C=C/c2ccc(OC(=O)CCC(NC(=O)c3ccc(NCc4cnc5nc(N)[nH]c(=O)c5n4)cc3)C(=O)O)c(OC)c2)ccc1OC(=O)CCC(NC(=O)c1ccc(NCc2cnc3nc(N)[nH]c(=O)c3n2)cc1)C(=O)O (stereo unspecified)
Ans. > 82 nM

Qu. Give CC50 for the following molecule: COc1cc(/C=C/C(=O)CC(=O)/C=C/c2ccc(OC(=O)[C@H](Cc3ccccc3)NC(=O)[C@@H](N)Cc3c[nH]c4ccccc34)c(OC)c2)ccc1OC(=O)[C@H](Cc1ccccc1)NC(=O)[C@@H](N)Cc1c[nH]c2ccccc12
Ans. 96 nM

Qu. Write down CC50 measured for item COc1cc(/C=C/C(=O)CC(=O)/C=C/c2ccc(OCCOC(=O)CCC(NC(=O)c3ccc(NCc4cnc5nc(N)[nH]c(=O)c5n4)cc3)C(=O)O)c(OC)c2)ccc1O (stereo unspecified)
Ans. > 119 nM

Qu. Note down CC50 recorded for COc1cc(/C=C/C(=O)C(CCOC(=O)CCC(NC(=O)c2ccc(NCc3cnc4nc(N)[nH]c(=O)c4n3)cc2)C(=O)O)C(=O)/C=C/c2ccc(O)c(OC)c2)ccc1O (stereo unspecified)
Ans. > 11 nM

Qu. Answer with reported CC50 of Nc1ncnc2c1ncn2C[C@H](O)CO [(S)-DHPA]
Ans. > 250000 nM

Qu. Name the recorded CC50 of the item COc1cc(/C=C/C(=O)CC(=O)/C=C/c2ccc(O)c(OC)c2)ccc1O [CURCUMIN] in your answer.
Ans. ≥ 10 nM

Where do the numbers come from? From ChEMBL document CHEMBL1154855.
